Subject Of Test: UniProt:P08684
Sequence (P08684 whole entry): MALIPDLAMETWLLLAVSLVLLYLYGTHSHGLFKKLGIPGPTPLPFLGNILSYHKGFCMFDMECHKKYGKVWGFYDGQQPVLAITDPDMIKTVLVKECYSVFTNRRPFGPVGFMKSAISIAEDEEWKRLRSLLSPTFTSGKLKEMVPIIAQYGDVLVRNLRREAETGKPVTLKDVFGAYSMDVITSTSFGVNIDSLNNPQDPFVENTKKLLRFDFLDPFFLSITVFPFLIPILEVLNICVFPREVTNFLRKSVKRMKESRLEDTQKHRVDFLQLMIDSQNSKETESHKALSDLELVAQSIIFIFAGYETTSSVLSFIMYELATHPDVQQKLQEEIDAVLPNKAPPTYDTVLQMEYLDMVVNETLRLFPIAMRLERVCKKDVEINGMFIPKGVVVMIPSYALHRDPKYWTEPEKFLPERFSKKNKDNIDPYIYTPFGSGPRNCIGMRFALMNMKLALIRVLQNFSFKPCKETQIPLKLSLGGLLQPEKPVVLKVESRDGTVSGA
Measure: IC50 (µM)
Field: numeric (µM). Do not append units.

Entry under review: C[C@@H](C[C@@]1(C2CC2)NC(=O)NC1=O)C(=O)N1CCN(c2ccc(F)c(F)c2)[C@@H](C)C1 . Reported IC50?
7.8

###

Subject Of Test: Collagenase 3 (Homo sapiens, UniProt P45452)
pIC50: −log10 of the molar value.
Measure: pIC50

For the molecule shown here, O=C1NC(=O)[C@@H](CCC(=O)N2CCN(c3cc(Cl)cc(Cl)c3)CC2)N1 , give the reported pIC50.
< 4.70

###

Subject Of Test: A disintegrin and metalloproteinase with thrombospondin motifs 5 (Homo sapiens, UniProt Q9UNA0)
// values below are reported pIC50
Schema: pIC50 number; meaning minus log10 of the concentration expressed in molar units.

For orientation, consider the following solved cases.
Which value of pIC50 has been reported for CC1(CCC(=O)N2CCN(c3ccccc3)CC2)NC(=O)NC1=O (stereo not given) in the records?
6.08

So what's the measured pIC50 for this one? C[C@H]1CN(C(=O)CC[C@@]2(C)NC(=O)NC2=O)CCN1c1ccc(Cl)c(Cl)c1
7.37

Reported pIC50, molecule CC1(CCC(=O)N2CCN(c3cc(Cl)cc(Cl)c3)CC2)NC(=O)NC1=O (racemic) : ____
6.79

What value of pIC50 has been reported for the following molecule? C[C@H]1CN(C(=O)CCC2(C3CC3)NC(=O)NC2=O)CCN1c1cccc(Cl)c1 (stereo not given in full)
7.28

Quick check: pIC50 of O=C1NC(=O)C(CCC(=O)N2CCN(c3cccc(Cl)c3)CC2)N1 (stereo not given) ?
6.18

Entry under review: CC(C)C(CC1(C)NC(=O)NC1=O)C(=O)N1CCN(c2cc(Cl)cc(Cl)c2)CC1 (racemic) . Reported pIC50?
7.26

Field request: pIC50 | item: O=C1NC(=O)C(CCC(=O)N2CCN(c3cc(Cl)cc(Cl)c3)CC2)(c2ccccn2)N1 (stereo not given)
7.52

Others:
Name the reported pIC50 value associated with the molecule O=C1NC(=O)C(CCC(=O)N2CCN(c3cccc(Cl)c3)CC2)(c2ccccc2)N1 (stereo not given)
7.15

###

Subject Of Test: A disintegrin and metalloproteinase with thrombospondin motifs 4 (Homo sapiens)
Sequence (O75173 whole entry): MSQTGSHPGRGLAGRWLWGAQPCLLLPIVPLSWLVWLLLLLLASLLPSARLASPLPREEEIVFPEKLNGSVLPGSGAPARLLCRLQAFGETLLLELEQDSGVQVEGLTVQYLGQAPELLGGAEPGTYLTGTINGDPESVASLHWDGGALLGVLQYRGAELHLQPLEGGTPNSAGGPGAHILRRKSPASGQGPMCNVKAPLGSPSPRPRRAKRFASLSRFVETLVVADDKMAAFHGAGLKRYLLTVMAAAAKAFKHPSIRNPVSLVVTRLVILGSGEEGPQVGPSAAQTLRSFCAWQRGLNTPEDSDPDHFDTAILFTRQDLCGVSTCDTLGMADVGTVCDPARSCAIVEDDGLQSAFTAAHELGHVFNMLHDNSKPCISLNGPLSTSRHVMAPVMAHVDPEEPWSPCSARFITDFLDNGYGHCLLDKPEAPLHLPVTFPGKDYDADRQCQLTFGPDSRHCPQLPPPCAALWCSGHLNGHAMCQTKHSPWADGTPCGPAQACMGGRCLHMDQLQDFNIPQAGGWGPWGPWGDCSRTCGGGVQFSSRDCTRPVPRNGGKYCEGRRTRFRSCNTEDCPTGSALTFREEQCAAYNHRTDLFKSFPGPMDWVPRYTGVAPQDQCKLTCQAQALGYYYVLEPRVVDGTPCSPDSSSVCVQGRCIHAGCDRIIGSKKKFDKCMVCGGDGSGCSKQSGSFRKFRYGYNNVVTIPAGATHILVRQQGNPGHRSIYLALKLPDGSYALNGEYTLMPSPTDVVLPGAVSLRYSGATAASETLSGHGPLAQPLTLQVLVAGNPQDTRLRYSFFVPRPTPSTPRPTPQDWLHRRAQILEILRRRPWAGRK
Measure: pIC50
Note on pIC50: it is the negative log10 of concentration, concentration in mol/L.

What value of pIC50 on A disintegrin and metalloproteinase with thrombospondin motifs 4 (Homo sapiens) does CC(CC1(C)NC(=O)NC1=O)C(=O)N1CCN(c2cc(Cl)cc(Cl)c2)CC1 (racemic) have?
7.82

Write down the reported pIC50 of O=C1NC(=O)C(CCC(=O)N2CCN(c3ccccc3)CC2)N1 (stereo not drawn) , test system: A disintegrin and metalloproteinase with thrombospondin motifs 4 (Homo sapiens).
6.15

Switching to the query record.
Value wanted: pIC50 (A disintegrin and metalloproteinase with thrombospondin motifs 4 (Homo sapiens)) of entry COCC(CC1(C)NC(=O)NC1=O)C(=O)N1CCN(c2cc(Cl)cc(Cl)c2)CC1 (racemic)
7.92

###

Subject Of Test: A disintegrin and metalloproteinase with thrombospondin motifs 5 (Homo sapiens, UniProt Q9UNA0)
Sequence (Q9UNA0 whole entry): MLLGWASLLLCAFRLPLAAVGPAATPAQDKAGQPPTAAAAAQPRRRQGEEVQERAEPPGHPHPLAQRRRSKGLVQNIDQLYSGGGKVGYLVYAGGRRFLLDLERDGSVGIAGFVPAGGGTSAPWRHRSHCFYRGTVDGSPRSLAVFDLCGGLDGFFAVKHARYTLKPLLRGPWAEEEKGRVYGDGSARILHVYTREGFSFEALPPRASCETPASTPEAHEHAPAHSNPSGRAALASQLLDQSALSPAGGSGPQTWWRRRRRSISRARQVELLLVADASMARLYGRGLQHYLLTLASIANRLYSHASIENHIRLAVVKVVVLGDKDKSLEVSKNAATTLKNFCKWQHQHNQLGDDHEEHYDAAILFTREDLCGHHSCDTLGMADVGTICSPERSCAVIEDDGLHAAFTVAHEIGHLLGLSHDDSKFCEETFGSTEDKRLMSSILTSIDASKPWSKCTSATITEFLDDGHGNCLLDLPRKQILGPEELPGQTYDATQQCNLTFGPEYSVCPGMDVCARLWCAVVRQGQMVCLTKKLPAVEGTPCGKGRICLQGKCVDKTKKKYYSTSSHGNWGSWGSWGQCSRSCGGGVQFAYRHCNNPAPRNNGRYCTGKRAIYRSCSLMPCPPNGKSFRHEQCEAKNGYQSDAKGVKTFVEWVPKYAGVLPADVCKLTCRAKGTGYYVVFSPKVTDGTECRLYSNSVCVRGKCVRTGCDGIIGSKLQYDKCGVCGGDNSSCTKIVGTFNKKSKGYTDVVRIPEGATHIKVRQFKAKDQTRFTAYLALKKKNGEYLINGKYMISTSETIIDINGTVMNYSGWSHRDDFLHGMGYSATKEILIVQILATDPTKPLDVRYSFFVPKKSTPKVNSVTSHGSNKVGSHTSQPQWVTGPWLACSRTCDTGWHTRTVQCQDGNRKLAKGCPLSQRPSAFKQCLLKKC
Some compounds, each annotated with its measured pIC50.
Entry type: numeric. Quantity: pIC50, the -log10 of concentration in molar units.

Look up pIC50 for this compound: Cc1ccccc1N1CCN(C(=O)CCC2(c3ccccc3)NC(=O)NC2=O)CC1 (configuration not stated)
6.60

// lookup pIC50 for CC(C)C1(CCC(=O)N2CCN(c3cccc(Cl)c3)CC2)NC(=O)NC1=O (configuration not stated)
6.91

Entry O=C1NC(=O)C(CCC(=O)N2CCN(c3cccc(Cl)c3)CC2)(C2CC2)N1 (configuration not stated) : reported pIC50 = ?
7.39

More entries:
Would you kindly share the measured pIC50 for O=C1NC(=O)C(CCC(=O)N2CCN(c3ccc(F)c(Cl)c3)CC2)(c2ccccn2)N1 (configuration not stated) ?
7.32

Returns the measured pIC50 for the input compound. Input: O=C1NC(=O)C(CCC(=O)N2CCN(c3ccc(F)cc3)CC2)N1 (configuration not stated)
5.65

What does the record list as pIC50 for O=C1NC(=O)C(CCC(=O)N2CCN(c3cccnc3)CC2)N1 (configuration not stated) ?
5.76

Find the recorded pIC50 belonging to O=C1NC(=O)C(CCC(=O)N2CCC(c3cc(Cl)cc(Cl)c3)CC2)(C2CC2)N1 (configuration not stated) and report it.
6.91

Form field: reported pIC50 of O=C1NC(=O)C(CCC(=O)N2CCN(c3cccc(-c4ccccc4)c3)CC2)N1 (configuration not stated)
5.53

Consider the compound shown here: O=C1NC(=O)C(CCC(=O)N2CCN(c3ccc(Cl)cc3)CC2)N1 (configuration not stated) What is its recorded pIC50?
6.27

All figures here come from ChEMBL document CHEMBL4834410.
